# ASSAYED SYSTEM: T1, rGyr_fl Y851F (full-length reverse gyrase) (Thermotoga maritima, UniProt O51934 1-1104, Y851F)
# T1 sequence: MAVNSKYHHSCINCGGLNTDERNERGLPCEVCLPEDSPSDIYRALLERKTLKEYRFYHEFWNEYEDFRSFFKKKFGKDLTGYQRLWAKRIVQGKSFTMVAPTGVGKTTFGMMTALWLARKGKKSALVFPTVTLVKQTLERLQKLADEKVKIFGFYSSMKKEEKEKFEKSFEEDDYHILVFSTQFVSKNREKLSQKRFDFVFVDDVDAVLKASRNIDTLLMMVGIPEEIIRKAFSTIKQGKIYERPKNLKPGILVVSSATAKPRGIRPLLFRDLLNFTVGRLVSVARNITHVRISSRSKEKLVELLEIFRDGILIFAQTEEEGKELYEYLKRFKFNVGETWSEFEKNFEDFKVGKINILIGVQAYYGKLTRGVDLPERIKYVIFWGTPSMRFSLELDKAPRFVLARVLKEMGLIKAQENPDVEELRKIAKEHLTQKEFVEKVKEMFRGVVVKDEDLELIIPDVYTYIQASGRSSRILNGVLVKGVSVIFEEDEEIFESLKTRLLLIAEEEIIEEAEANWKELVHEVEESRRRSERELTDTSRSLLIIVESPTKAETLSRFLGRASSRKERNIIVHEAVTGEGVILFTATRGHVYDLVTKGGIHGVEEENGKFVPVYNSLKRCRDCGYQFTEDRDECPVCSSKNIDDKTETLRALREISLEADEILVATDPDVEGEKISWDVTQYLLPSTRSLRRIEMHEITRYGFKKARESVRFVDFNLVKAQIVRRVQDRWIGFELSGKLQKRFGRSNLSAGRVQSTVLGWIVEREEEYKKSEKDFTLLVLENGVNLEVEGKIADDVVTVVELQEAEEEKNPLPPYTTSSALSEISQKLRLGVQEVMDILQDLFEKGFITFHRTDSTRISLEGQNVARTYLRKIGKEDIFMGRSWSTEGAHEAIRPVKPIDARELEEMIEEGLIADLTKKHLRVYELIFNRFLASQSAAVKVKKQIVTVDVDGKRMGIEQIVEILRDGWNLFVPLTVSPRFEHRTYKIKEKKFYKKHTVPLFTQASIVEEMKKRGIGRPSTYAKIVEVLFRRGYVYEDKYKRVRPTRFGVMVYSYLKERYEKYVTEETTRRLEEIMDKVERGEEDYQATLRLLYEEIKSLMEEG
# TEST DESCRIPTION: fluorescence anisotropy
RESULT TYPE: pKd
# pKd is unitless: minus log10 of the molar concentration; print number only

Enquiry: What does the data say about its pKd? Entry: 60-base ssDNA (ssDNA) DNA: AAGCCAAGCTTCTAGAGTCAGCCCGTGATATTCATTACTTCTTATCCTAGGATCCCCGTT
Return: 7.44

All figures here come from paper PMC2566858.
